- SYSTEM: T1, HLA-A*0201 molecule expressed on human T2 cells (human)
- T1 construct: also called HLA-A2
- ASSAY_NOTES: T2 cells (HLA-A*0201), peptide at 10 µM, anti-HLA-A2 flow cytometry
PARAMETER: mean relative fluorescence intensity (HIV peptide = 100)

{"BINDER": "SLVGILHII [CD19-B11]", "MEASUREMENT": "30.5 % of HIV pol 589-597 at 100 µM"}
{"BINDER": "ILIPAGIYL [MS4A1-B3]", "MEASUREMENT": "87.8 % of HIV pol 589-597 at 100 µM"}
{"BINDER": "SLVGILHLQ [CD19-H1]", "MEASUREMENT": "1 % of HIV pol 589-597 at 100 µM"}
